Biological target: Human CD73 (Homo sapiens, UniProt P21589)
Construct: purchased R&D Systems; host or cells: CHO cells
Experiment: CD73 Enzyme Assay
Format: biochemical
Conditions: 0.25 nM hCD73, 25 μM AMP, kinetic read at 360 nm; read-out: CD73 Enzyme Assay IC50
What IC50 was measured for each of the following?

Here are 5 compounds together with their reported answers.
QUERY: Please indicate IC50 recorded for Nc1nc(Cl)nc2c1ccn2[C@@H]1O[C@H](COCP(=O)(O)O)[C@@H](O)[C@H]1O
RESULT: 100 to 1000 nM

QUERY: Please indicate IC50 recorded for O=P(O)(O)CS(=O)(=O)C[C@H]1O[C@@H](n2ncc3c(NC4CCCC4)nc(Cl)nc32)[C@H](O)[C@@H]1O
RESULT: < 10 nM

QUERY: Please indicate IC50 recorded for COCC#Cc1nc(NC2CCCC2)c2ccn([C@@H]3O[C@H](COCP(=O)(O)O)[C@@H](O)[C@H]3O)c2n1
RESULT: < 10 nM

QUERY: Please indicate IC50 recorded for CC(C)OP(=O)(O)CS(=O)(=O)C[C@H]1O[C@@H](n2ccc3c(NC4CCCC4)nc(Cl)nc32)[C@H](O)[C@@H]1O
RESULT: 100 to 1000 nM

QUERY: Please indicate IC50 recorded for O=P(O)(O)COC[C@H]1O[C@@H](n2cnc3c(NC4CCC4)ncnc32)[C@H](O)[C@@H]1O
RESULT: 100 to 1000 nM

Quick request: IC50 for each listed item, please.
1. O=P(O)(O)COC[C@H]1O[C@@H](n2ncc3c(NC4CCCC4)nc(Cl)nc32)[C@H](O)[C@@H]1O
2. O=P(O)(O)CS(=O)(=O)C[C@H]1O[C@@H](n2ccc3c(NC4CCC4)nc(Cl)nc32)[C@H](O)[C@@H]1O

RESULT:
["< 10 nM", "< 10 nM"]

---

What IC50 was measured for each of the following?
Target: Human CD73 (Homo sapiens)
Construct: purchased R&D Systems; host or cells: CHO cells
Sequence (P21589 27-549): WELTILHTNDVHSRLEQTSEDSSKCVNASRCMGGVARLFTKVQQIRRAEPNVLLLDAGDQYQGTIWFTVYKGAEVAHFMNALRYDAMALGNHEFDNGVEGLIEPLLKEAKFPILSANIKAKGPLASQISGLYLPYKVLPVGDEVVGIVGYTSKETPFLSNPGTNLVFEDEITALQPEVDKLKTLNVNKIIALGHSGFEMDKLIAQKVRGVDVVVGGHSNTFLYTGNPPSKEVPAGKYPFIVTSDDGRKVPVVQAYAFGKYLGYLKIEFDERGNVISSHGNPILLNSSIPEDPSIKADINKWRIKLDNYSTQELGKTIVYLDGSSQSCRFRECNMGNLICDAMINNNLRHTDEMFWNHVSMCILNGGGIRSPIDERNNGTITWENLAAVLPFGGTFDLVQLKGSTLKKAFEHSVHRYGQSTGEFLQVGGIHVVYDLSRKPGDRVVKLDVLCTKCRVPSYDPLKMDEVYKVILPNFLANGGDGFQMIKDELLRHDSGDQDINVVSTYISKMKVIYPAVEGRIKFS
Assay: CD73 Enzyme Assay
Type: biochemical
Settings: 0.25 nM hCD73, 25 μM AMP, kinetic read at 360 nm; read-out: CD73 Enzyme Assay IC50

Here are 4 compounds together with their reported answers.
QUERY: Please indicate IC50 recorded for COc1nc(NC2CCCC2)c2ccn([C@@H]3O[C@H](COCP(=O)(O)O)[C@@H](O)[C@H]3O)c2n1 [Compound 247]
RESULT: 10 to 100 nM

QUERY: Please indicate IC50 recorded for Cc1ccc([C@@H](C)Nc2nc(Cl)nc3c2ccn3[C@@H]2O[C@H](CS(=O)(=O)CP(=O)(O)O)[C@@H](O)[C@H]2O)cc1 [Compound 169]
RESULT: < 10 nM

QUERY: Please indicate IC50 recorded for O=P(O)(O)COC[C@H]1O[C@@H](n2ccc3c(N4CC5CC5C4)nc(Cl)nc32)[C@H](O)[C@@H]1O (stereo partly shown) [Compound 105]
RESULT: < 10 nM

QUERY: Please indicate IC50 recorded for C#Cc1nc(NC2CCCC2)c2ccn([C@@H]3O[C@H](COCP(=O)(O)O)[C@@H](O)[C@H]3O)c2n1 [Compound 244]
RESULT: < 10 nM

Quick request: IC50 for each listed item, please.
1. O=P(O)(O)COC[C@H]1O[C@@H](n2cnc3c(NCc4cccc(CO)c4)ncnc32)[C@H](O)[C@@H]1O [Compound 64]
2. O=P(O)(O)COC[C@H]1O[C@@H](n2ccc3c(NC4CNC4)nc(Cl)nc32)[C@H](O)[C@@H]1O [Compound 245]
3. COCCOc1nc(NC2CCCC2)c2ccn([C@@H]3O[C@H](COCP(=O)(O)O)[C@@H](O)[C@H]3O)c2n1 [Compound 260]
4. CN(c1nc(Cl)nc2c1ccn2[C@@H]1O[C@H](COCP(=O)(O)O)[C@@H](O)[C@H]1O)C1CCCC1 [Compound 192]
5. O=C(O)c1nc(NCc2ccccc2)c2ncn([C@@H]3O[C@H](COCP(=O)(O)O)[C@@H](O)[C@H]3O)c2n1 [Compound 6]
6. C[C@H](Nc1nc(Cl)nc2c1ncn2[C@@H]1O[C@H](COCP(=O)(O)O)[C@@H](O)[C@H]1O)c1ccccc1 [Compound 21]

RESULT:
1. > 1000 nM
2. 100 to 1000 nM
3. 10 to 100 nM
4. < 10 nM
5. > 1000 nM
6. 10 to 100 nM

Quick request: IC50 for each listed item, please.
1. Cc1oc(=O)oc1COP(=O)(O)COC[C@H]1O[C@@H](n2ccc3c(NC4CCCC4)nc(Cl)nc32)[C@H](O)[C@@H]1O [Compound 225]
2. O=P(O)(O)COC[C@H]1O[C@@H](n2ccc3c(N4CCCCC4)nc(Cl)nc32)[C@H](O)[C@@H]1O [Compound 126]
3. NCCNc1ncnc2c1ncn2[C@@H]1O[C@H](COCP(=O)(O)O)[C@@H](O)[C@H]1O [Compound 25]
4. C[C@H](Nc1nc(Cl)nc2c1ccn2[C@@H]1O[C@H](CS(=O)(=O)CP(=O)(O)O)[C@@H](O)[C@H]1O)c1ccccc1 [Compound 153]
5. C[C@H](Nc1nc(Cl)nc2c1ccn2[C@@H]1O[C@H](COCP(=O)(O)O)[C@@H](O)[C@H]1O)c1ccc(C2CC2)cc1 [Compound 198]
6. O=P(O)(O)COC[C@H]1O[C@@H](n2ccc3c(N4CC5CCCC5C4)nc(Cl)nc32)[C@H](O)[C@@H]1O (stereo partly shown) [Compound 103]

RESULT:
["10 to 100 nM", "10 to 100 nM", "> 1000 nM", "< 10 nM", "< 10 nM", "< 10 nM"]

Just for reference, patent US11591355B2 is where these values come from.
